Recorded values, source ChEMBL document CHEMBL1201862.

Tested on: UACC-62
Assay: NCI tumour cell line growth inhibition, 48 h
Calls of active or inactive are those of the source. No stated cut-off is given here; in the data, active = GI50 up to about 1.1 µM and inactive = higher.
Answer with one of the outcomes active, inactive

Just curious, what result did COc1c(C)c(OC)c2c(c1O)[C@@H]1[C@@H]3Cc4c(OC)c(C)c(OC)c(O)c4[C@H](CNC(=O)c4cnc5ccccc5n4)N3[C@@H](C#N)[C@H](C2)N1C get here?
active

CCCCCC(=O)Cc1cc(OC)cc2c1C(=O)Oc1cc(O)c(C(=O)O)c(CC(=O)CCCCC)c1O2 , same question.
inactive

Cc1cccc(C)c1NC(=O)/C(CC(=O)CC(c1ccccc1)c1c(O)c2ccccc2oc1=O)=N/O (stereo not given) , same question.
inactive

COc1nc(/C=N/NC(N)=S)nc(OC)n1 , same question.
inactive

Oc1cccc2c(Br)ccnc12 , same question.
inactive
